System: U251 CNS
Measurement protocol: NCI tumour cell line growth inhibition, 48 h
Measurement kind: TGI (µM)
Just the number in µM, nothing appended.

Solved entries (count: 2):
>>> value("CCSC1=CC(=O)c2ccccc2C1=O")
16.5
>>> value("O=[N+]([O-])c1ccccc1C1N2CCCCC2[C@@H]2c3[nH]c4ccccc4c3CCN12 (stereo partly specified)")
31.3

Entry CCCCCCCCCC(=O)CC(=O)c1c(O)cccc1O , system U251 CNS: what TGI was measured?
69.3

###

Test system: PC-3 prostate
Measurement protocol: NCI tumour cell line growth inhibition, 48 h
Measurement kind: TGI

>>> value("O=C(O)c1ccccc1/C=N\\NC1=NCCN1")
"> 100 µM"

Request the reported TGI associated with O=C(/C=C/c1ccco1)Nc1ncc(Cc2ccc(F)cc2)s1
> 100 µM

Sample O=[N+]([O-])C1(C2([N+](=O)[O-])CCCC2)CCCC1 — what was its TGI?
> 100 µM

Would you kindly share the measured TGI for CC(=O)OC[C@@]12C[C@H]3C(=O)C(C)(C)C[C@H]3[C@]1(C)[C@@H](OC(C)=O)[C@]1(O)[C@H]([C@@H](OC(=O)c3ccccc3)[C@@H](C)[C@H]1OC(C)=O)[C@H]2OC(C)=O ?
> 20 µM

Using the record for N#Cc1c(C#N)c(SSc2c(C#N)c(C#N)c(N)n2-c2ccccc2)n(-c2ccccc2)c1N , report its TGI.
46.1 µM

Quick one: TGI of CN(/N=C\c1ccc2ccccc2c1)C1=NCCCCN1 ?
36 µM

// query TGI value for entry CCOC(=O)c1c(SCCO)n(-c2ccccc2)c(=S)n(-c2ccccc2)c1=O
> 100 µM

// TGI lookup, key: c1ccc(-c2cc(-c3cc(-c4ccccc4)n(-c4ccccc4)n3)nn2-c2ccccc2)cc1
> 100 µM

Consider the molecule shown here: O=C(/C=C/c1ccc(Cl)c(Cl)c1)Oc1ccc(/C=C2\CCCCC2=O)cc1 What is its recorded TGI?
> 100 µM

Name the recorded TGI for CCCC[C@@H](COC(=O)N(Cc1cccs1)Cc1cccs1)NC(=O)N[C@@H](CC(=O)OC)c1ccc2c(c1)OCO2 .
> 100 µM

Data request, read-out TGI, for CC(=O)Oc1cccc2c1C(=O)c1c(OC(C)=O)cc(C)cc1C2=O
> 100 µM

May I ask what TGI has been recorded for CO[C@H]1O[C@@H]2CO[C@@H](c3ccccc3)O[C@H]2C[C@]12CCC/C=C\CO2 ?
50.8 µM

###

Test system: MDA-N
Measurement protocol: NCI tumour cell line growth inhibition, 48 h
Measurement kind: TGI

Use the examples below as a reference point.
>>> value("C=CCn1c(=O)c(C)cn(/C(=C/C(=O)OCC)C(=O)OCC)c1=O")
"33.7 µM"
>>> value("CC1(C)CCc2c(c(N=Nc3ccccc3)c3ccccc3c2O)O1")
"41.7 µM"
>>> value("O=C(/C=C/c1ccc(Cl)c(Cl)c1)Oc1ccc(/C=C2\\CCCCC2=O)cc1")
"> 100 µM"
>>> value("O/N=C\\c1cc(O)c(O)c(/C=N/O)c1")
"> 100 µM"
>>> value("Nc1c(C(=O)c2ccccc2)[nH]c(NCc2ccccc2)c1C(=S)Nc1ccccc1")
"> 100 µM"
>>> value("CC1=C(C(=O)OC(C)C)C(c2ccccc2[N+](=O)[O-])C(C(=O)OC(CO[N+](=O)[O-])CO[N+](=O)[O-])=C(C)N1 (configuration not stated)")
"8.43 µM"
>>> value("CC(C)C(N)(C(=O)O)c1ccccc1 (configuration not stated)")
"> 100 µM"
>>> value("N#Cc1c(C#N)c(SSc2c(C#N)c(C#N)c(N)n2-c2ccccc2)n(-c2ccccc2)c1N")
"> 56.7 µM"

Quick one: TGI of c1ccc(-c2cc(-c3cc(-c4ccccc4)n(-c4ccccc4)n3)nn2-c2ccccc2)cc1 ?
> 100 µM

Which TGI value belongs to CSc1c(C#N)c2n(c3ccccc3[n+]2C)c2ncccc12 ?
58.6 µM

Look up TGI: CCOC(=O)CCC(NC(=O)OCc1ccccc1)C(=O)NC(CCC(=O)OCC)C(=O)NC(CCC(=O)OCC)C(=O)NC(CCC(=O)OCC)C(=O)NC(CCC(=O)OCC)C(=O)OCC (configuration not stated)
> 100 µM

Return reported TGI; argument: COc1ccc(C)cc1NC(=S)N/N=C/c1ccc(SC)cc1
> 100 µM

What does the record list as TGI for NC(=O)N(O)c1cccc(Br)c1 ?
> 100 µM

Consider the molecule NNC(=O)c1n[nH]nc1SSc1n[nH]nc1C(=O)NN and give its measured TGI.
> 100 µM

Look at this molecule and give its reported TGI. C=C1C(C)C2C(Cc3ccccc3)NC(=O)C23C(OC(C)=O)/C=C/C(C)(O)CC(C)C/C=C/C3C1O (configuration not stated)
> 100 µM
